Please respond with reported pIC50 for every item in the list.
# MEASURED TARGET: human DP2 receptor (Homo sapiens, UniProt Q9Y5Y4)
# Construct: expressed in transfected cells; membrane preparation
# Sequence (Q9Y5Y4 whole entry): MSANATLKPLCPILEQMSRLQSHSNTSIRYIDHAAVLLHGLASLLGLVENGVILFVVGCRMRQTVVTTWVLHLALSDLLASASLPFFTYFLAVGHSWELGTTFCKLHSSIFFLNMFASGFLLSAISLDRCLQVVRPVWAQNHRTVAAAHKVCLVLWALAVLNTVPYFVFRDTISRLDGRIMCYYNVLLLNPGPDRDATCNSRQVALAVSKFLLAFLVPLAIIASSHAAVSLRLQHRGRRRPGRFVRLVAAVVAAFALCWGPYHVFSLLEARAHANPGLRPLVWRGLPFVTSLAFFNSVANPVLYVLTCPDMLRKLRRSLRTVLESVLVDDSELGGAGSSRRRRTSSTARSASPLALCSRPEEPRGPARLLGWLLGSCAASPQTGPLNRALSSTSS
# PROCEDURE DETAILS: DP2/CRTH2 radioligand binding assay using [3H]PGD2
# CONDITION: hDP2 (CRTH2) binding assay; membranes of HEK293 cells expressing recombinant human DP2, 1 nM [3H]PGD2
pIC50: −log10 of the molar value.

Worked cases, answers included:
MOLECULE: O=C(O)Cc1cncc(-c2ccc(C(F)(F)F)cc2CN(CCc2ccccn2)C(=O)C2CC2)c1 [Compound 1-64]
READOUT VALUE: < 6.00

MOLECULE: CCN(Cc1cc(C(F)(F)F)ccc1-c1cccc(CC(=O)O)n1)C(=O)C1CC1 [Compound 1-40]
READOUT VALUE: < 6.00

MOLECULE: CCN(Cc1cc(C(F)(F)F)ccc1-c1cc(CC(=O)O)cnc1OCC1CC1)C(=O)C1CC1 [Compound 1-69]
READOUT VALUE: > 6.52

*Q* Quick check: pIC50 of O=C(O)Cc1cncc(-c2ccc(C(=O)N3CCCC3)cc2CN(Cc2ccccc2)C(=O)C2CC2)c1 [Compound 1-8] ?
*A* 6.00 to 6.52

====

# MEASURED TARGET: human DP2 receptor (Homo sapiens)
# Construct: membrane preparation
# PROCEDURE DETAILS: DP2/CRTH2 radioligand binding assay using [3H]PGD2
# CONDITION: hDP2 (CRTH2) binding assay; membranes of HEK293 cells expressing recombinant human DP2, 1 nM [3H]PGD2
OBSERVATION TYPE: IC50

COMPOUND: CCN(Cc1cc(C(F)(F)F)ccc1-c1cc(CC(=O)O)cnc1OCc1csc(C)n1)C(=O)C1CC1 [Compound 1-70]
IC50: < 300 nM
--
COMPOUND: CC(=O)N(Cc1ccccn1)Cc1cc(C(F)(F)F)ccc1-c1cncc(CC(=O)O)c1 [Compound 1-53]
IC50: < 300 nM

Batch request: IC50 for each of the following compounds.
1. CCN(Cc1cc(C(F)(F)F)ccc1-c1cc(C(F)(F)F)cc(CC(=O)O)n1)C(=O)C1CCC1 [Compound 1-41]
2. CCN(Cc1cc(C(F)(F)F)ccc1-c1cc(CC(=O)O)cnc1OCc1ccccc1)C(=O)C1CC1 [Compound 1-68]

*A*
["< 300 nM", "< 300 nM"]

List IC50 for every entry below, keeping the order given.
1. CCNCc1cc(C(F)(F)F)ccc1-c1cncc(CC(=O)O)c1 [Compound 1-78]
2. O=C(O)Cc1cncc(-c2ccc(C(F)(F)F)cc2CN(C(=O)C2CC2)C2Cc3ccccc3C2)c1 [Compound 1-24]
3. CCN(Cc1cc(C(F)(F)F)ccc1-c1cccc(CC(=O)O)n1)C(=O)OC(C)(C)C [Compound 1-38]
4. O=C(O)Cc1cncc(-c2ccc(C(F)(F)F)cc2CN(CCc2cccnc2)C(=O)C2CC2)c1 [Compound 1-65]

*A*
1. > 1000 nM
2. < 300 nM
3. > 1000 nM
4. 300 to 1000 nM

I'm hoping you can list IC50 for every compound here, please.
1. O=C(O)Cc1cncc(-c2ccc(C(F)(F)F)cc2CN(Cc2ccccn2)C(=O)C2CC2)c1 [Compound 1-52]
2. CC(=O)N(CCc1ccccc1)Cc1cc(C(F)(F)F)ccc1-c1cncc(CC(=O)O)c1 [Compound 1-27]

*A*
1. < 300 nM
2. < 300 nM

====

# MEASURED TARGET: human DP2 receptor (Homo sapiens)
# Construct: membrane preparation
# PROCEDURE DETAILS: DP2/CRTH2 radioligand binding assay using [3H]PGD2
# CONDITION: hDP2 (CRTH2) binding assay; membranes of HEK293 cells expressing recombinant human DP2, 1 nM [3H]PGD2
pIC50: −log10 of the molar value.
OBSERVATION TYPE: pIC50

Previously resolved entries follow.
COMPOUND: Cc1nn(CC(=O)O)c(C)c1-c1ccc(C(F)(F)F)cc1CN(Cc1ccccc1)C(=O)C1CC1
pIC50: > 6.52

COMPOUND: CCN(Cc1cc(C(F)(F)F)ccc1-c1cnn(CC(=O)O)c1)C(=O)C1CC1
pIC50: > 6.52

COMPOUND: Cc1cnc(CN(Cc2cc(C(F)(F)F)ccc2-c2cncc(CC(=O)O)c2)C(=O)C2CC2)cn1
pIC50: > 6.52

COMPOUND: CCN(Cc1cc(F)ccc1-c1cncc(C(C)C(=O)O)c1)C(=O)C1CC1 (centres unmarked)
pIC50: < 6.00

Lab note: next compound to report on.
*Q* Which pIC50 value is on record for `CCN(Cc1cc(-n2cccn2)ccc1-c1cc(CC(=O)O)cnc1OC)C(=O)C1CC1` ?
*A* > 6.52

====

# MEASURED TARGET: human DP2 receptor (Homo sapiens)
# Construct: expressed in transfected cells; membrane preparation
# PROCEDURE DETAILS: DP2/CRTH2 radioligand binding assay using [3H]PGD2
# CONDITION: hDP2 (CRTH2) binding assay; membranes of HEK293 cells expressing recombinant human DP2, 1 nM [3H]PGD2
OBSERVATION TYPE: IC50

COMPOUND: CCN(Cc1cc(C(F)(F)F)ccc1-c1cccc(CC(=O)O)n1)C(=O)NCc1ccccc1
MEASURED TARGET: human DP2 receptor (Homo sapiens)
IC50: > 1000 nM

Could you tell me IC50 for each of these compounds? They are listed below.
1. CCN(Cc1cc(C(F)(F)F)ccc1-c1cc(C(F)(F)F)cc(CC(=O)O)n1)C(=O)NCc1ccccc1
2. CC(=O)N(Cc1cnc(C)cn1)Cc1cc(C(F)(F)F)ccc1-c1cncc(CC(=O)O)c1

*A*
< 300 nM
< 300 nM

For the 3 compounds below, give their IC50 values.
1. CC(=O)N(Cc1ccc(C(F)(F)F)nc1)Cc1cc(C(F)(F)F)ccc1-c1cncc(CC(=O)O)c1
2. O=C(O)Cc1cncc(-c2ccc(C(F)(F)F)cc2CN(CCc2ccncc2)C(=O)C2CC2)c1
3. O=C(O)Cc1cncc(-c2ccc(C(F)(F)F)cc2CN(CCc2ccccc2)C(=O)C2CC2)c1

*A*
1. < 300 nM
2. > 1000 nM
3. < 300 nM

List reported IC50 for each of these compounds:
1. CCN(Cc1cc(F)ccc1-c1cncc(C(C)C(=O)O)c1)C(=O)NCc1ccccc1 (centres unmarked)
2. CC(=O)NCc1ccc(-c2cncc(CC(=O)O)c2)c(CN(Cc2ccccc2)C(=O)C2CC2)c1
3. CCN(Cc1cc(C(F)(F)F)ccc1-c1cc(CC(=O)O)ccn1)C(=O)NCc1ccccc1
4. C[C@H]1[C@@H](c2ccccc2)OC(=O)N1Cc1cc(C(F)(F)F)ccc1-c1cncc(CC(=O)O)c1
5. CS(=O)(=O)NCc1ccc(-c2cncc(CC(=O)O)c2)c(CN(Cc2ccccc2)C(=O)C2CC2)c1

*A*
1: 300 to 1000 nM; 2: > 1000 nM; 3: > 1000 nM; 4: < 300 nM; 5: > 1000 nM

====

# MEASURED TARGET: human DP2 receptor (Homo sapiens, UniProt Q9Y5Y4)
# Construct: membrane preparation
# PROCEDURE DETAILS: DP2/CRTH2 radioligand binding assay using [3H]PGD2
# CONDITION: hDP2 (CRTH2) binding assay; membranes of HEK293 cells expressing recombinant human DP2, 1 nM [3H]PGD2
pIC50: −log10 of the molar value.
Exercise: for every item that follows, state its recorded pIC50.

Examples from the recorded data:
COMPOUND: CCN(Cc1cc(C(F)(F)F)ccc1-c1cncc(CC(=O)O)c1)S(=O)(=O)c1cccc2c(N(C)C)cccc12 [Compound 1-77]
MEASURED TARGET: human DP2 receptor (Homo sapiens, UniProt Q9Y5Y4)
pIC50: > 6.52
--
COMPOUND: CCN(Cc1cc(C(F)(F)F)ccc1-c1c(C)nn(CC(=O)O)c1C)C(=O)C1CC1 [Compound 3-2]
MEASURED TARGET: human DP2 receptor (Homo sapiens, UniProt Q9Y5Y4)
pIC50: < 6.00
--
COMPOUND: O=C(O)Cc1cncc(-c2ccc(C(F)(F)F)cc2CN(Cc2ccc(C(F)(F)F)nc2)C(=O)C2CC2)c1 [Compound 1-59]
MEASURED TARGET: human DP2 receptor (Homo sapiens, UniProt Q9Y5Y4)
pIC50: > 6.52
--
COMPOUND: CCN(Cc1cc(C(F)(F)F)ccc1-c1cc(CC(=O)O)cnc1-c1ccccc1)C(=O)C1CC1 [Compound 1-76]
MEASURED TARGET: human DP2 receptor (Homo sapiens, UniProt Q9Y5Y4)
pIC50: < 6.00
--
COMPOUND: CCN(Cc1cc(C(F)(F)F)ccc1-c1cc(CC(=O)O)ccn1)C(=O)C1CC1 [Compound 1-35]
MEASURED TARGET: human DP2 receptor (Homo sapiens, UniProt Q9Y5Y4)
pIC50: < 6.00

Fill in pIC50 for each of the 2 compounds listed.
1. COCC(=O)N(Cc1cnc(C)cn1)Cc1cc(C(F)(F)F)ccc1-c1cncc(CC(=O)O)c1 [Compound 1-60]
2. CCN(Cc1cc(C(F)(F)F)ccc1-c1cc(CC(=O)O)ccn1)C(=O)C1CCC1 [Compound 1-36]

*A*
["6.00 to 6.52", "< 6.00"]

Please look at the items below and tell me pIC50 for each one, in order.
1. CCN(Cc1cc(F)ccc1-c1cncc(C(C)C(=O)O)c1)C(=O)OCc1ccccc1 (stereo not drawn) [Compound 1-11]
2. CCN(Cc1cc(C(F)(F)F)ccc1-c1cc(CC(=O)O)ccn1)C(=O)c1ccccc1 [Compound 1-37]

*A*
1. > 6.52
2. < 6.00
